# Target system: human MMP-12 (human, UniProt P39900 106-470, limits assumed)
# Sequence (P39900 106-470 limits assumed): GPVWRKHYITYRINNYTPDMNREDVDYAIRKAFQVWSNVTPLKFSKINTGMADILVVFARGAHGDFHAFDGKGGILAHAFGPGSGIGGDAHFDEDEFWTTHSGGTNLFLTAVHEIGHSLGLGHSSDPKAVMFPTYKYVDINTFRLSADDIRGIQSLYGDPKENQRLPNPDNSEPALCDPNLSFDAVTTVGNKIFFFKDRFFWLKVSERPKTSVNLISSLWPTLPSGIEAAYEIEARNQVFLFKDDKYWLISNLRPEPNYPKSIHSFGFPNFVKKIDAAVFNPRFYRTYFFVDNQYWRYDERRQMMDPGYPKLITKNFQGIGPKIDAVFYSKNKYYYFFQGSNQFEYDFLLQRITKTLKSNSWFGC
# Procedure summary: cell-based or functional assay
Quantity kind: IC50hu (nM)
The response must be a number in nM with no trailing unit.

q: Requested read-out: IC50hu. Entry: 539B-M0071-A01 (Fab, V domains shown) VH: EVQLLESGGGLVQPGGSLRLSCAASGFTFSEYWMTWVRQAPGKGLEWVSGISPSGGMTFYADSVKGRFTISRDNSKNTLYLQMNSLRAEDTAVYYCAKDIRGAYSSGLFDYWGRGTLVTVSS VL: DIQMTQSPSSLSASVGDRVTITCRANQSIYTYLNWYQQKPGKAPELLIYAASSLQSGVPSRFSGSGSGTDFTLTISSLQPEDFATYYCQQAGIFGQGTKLEIK
a: 0.3

q: For 539B-M0008-H09 Fab (Fab, V domains shown, N-glycosylation site in LC CDR1; also called M08H09) VH: EVQLLESGGGLVQPGGSLRLSCAASGFTFSDYNMHWVRQAPGKGLEWVSYIGPSGGYTHYADSVKGRFTISRDNSKNTLYLQMNSLRAEDTAVYYCAKDIRGAYSSGLFDYWGRGTLVTVSS VL: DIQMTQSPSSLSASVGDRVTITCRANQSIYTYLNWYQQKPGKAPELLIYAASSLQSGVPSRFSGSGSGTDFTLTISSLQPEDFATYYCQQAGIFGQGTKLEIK , what is its reported IC50hu?
a: 12.1

q: What measured IC50hu goes with 539B-M0071-H03 (Fab, V domains shown) VH: EVQLLESGGGLVQPGGSLRLSCAASGFTFSPYWMHWVRQAPGKGLEWVSGIGPSGGPTFYADSIKGRFTISRDNSKNTLYLQMNSLRAEDTAVYYCAKDIRGAYSSGLFDYWGRGTLVTVSS VL: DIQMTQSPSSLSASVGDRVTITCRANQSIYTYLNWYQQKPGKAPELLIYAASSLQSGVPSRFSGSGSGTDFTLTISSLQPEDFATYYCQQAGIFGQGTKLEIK ?
a: 0.2

q: Entry 539B-M0063-B01 (Fab, V domains shown) VH: EVQLLESGGGLVQPGGSLRLSCAASGFTFSWYWMGWVRQAPGKGLEWVSSISPSGGYTFYADSVKGRFTISRDNSKNTLYLQMNSLRAEDTAVYYCAKDIRGAYSSGLFDYWGRGTLVTVSS VL: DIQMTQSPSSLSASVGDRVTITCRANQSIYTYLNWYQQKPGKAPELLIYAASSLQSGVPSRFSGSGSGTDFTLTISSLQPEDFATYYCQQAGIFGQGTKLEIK : reported IC50hu = ?
a: 0.7

q: Endpoint output: IC50hu of 539B-M0063-C07 (Fab, V domains shown) VH: EVQLLESGGGLVQPGGSLRLSCAASGFTFSPYWMSWVRQAPGKGLEWVSGISPSGGITFYADSVKGRFTISRDNSKNTLYLQMNSLRAEDTAVYYCAKDIRGAYSSGLFDYWGRGTLVTVSS VL: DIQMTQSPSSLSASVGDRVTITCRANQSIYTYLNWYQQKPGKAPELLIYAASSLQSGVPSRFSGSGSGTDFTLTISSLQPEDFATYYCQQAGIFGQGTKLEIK . Value?
a: 1
